Data origin: ChEMBL document CHEMBL5303573

settings: parabacteroides johnsonii, 12 h, 2 µM
Description: The drug is tested on Parabacteroides johnsonii strain: DSM18315 for biotransformation. The drug concentrations were measured before and after a 12-h incubation by liquid-chromatography-coupled mass spectrometry (LC–MS)
Readout label: Bacterial Biotransformation

INSERT INTO measurements (compound, value) VALUES
  ('C=C[C@H]1CN2CC[C@H]1C[C@H]2[C@H](O)c1ccnc2ccc(OC)cc12.C=C[C@H]1CN2CC[C@H]1C[C@H]2[C@H](O)c1ccnc2ccc(OC)cc12.O.O.O=S(=O)(O)O [QUININE SULFATE]', 'Compound NOT metabolized'),
  ('Nc1nc2ccc(OC(F)(F)F)cc2s1', 'Compound NOT metabolized');

====

test: The drug is tested on Bifidobacterium ruminantium strain: fecal isolate for biotransformation. The drug concentrations were measured before and after a 12-h incubation by liquid-chromatography-coupled mass spectrometry (LC–MS); settings: 2 µM
Readout label: Bacterial Biotransformation

INSERT INTO assay_data (compound, readout_label, value) VALUES
  ('C#C[C@]1(OC(C)=O)CC[C@H]2[C@@H]3CCC4=C/C(=N/O)CC[C@@H]4[C@H]3CC[C@@]21CC [NORGESTIMATE]', 'Bacterial Biotransformation', 'Compound NOT metabolized'),
  ('CCCc1nc2c(C)cc(-c3nc4ccccc4n3C)cc2n1Cc1ccc(-c2ccccc2C(=O)O)cc1', 'Bacterial Biotransformation', 'Compound NOT metabolized'),
  ('COCCc1ccc(OCC(O)CNC(C)C)cc1.COCCc1ccc(OCC(O)CNC(C)C)cc1.O=C(O)C(O)C(O)C(=O)O (stereo unspecified) [METOPROLOL TARTRATE]', 'Bacterial Biotransformation', 'Compound metabolized'),
  ('OC(CCN1CCCCC1)(c1ccccc1)C1CC2C=CC1C2 (stereo unspecified)', 'Bacterial Biotransformation', 'Compound NOT metabolized'),
  ('CC(C)C[C@H]1C(=O)N2CCC[C@H]2[C@]2(O)O[C@](NC(=O)[C@@H]3C=C4c5cccc6[nH]c(Br)c(c56)C[C@H]4N(C)C3)(C(C)C)C(=O)N12.CS(=O)(=O)O [BROMOCRIPTINE MESYLATE]', 'Bacterial Biotransformation', 'Compound metabolized'),
  ('Cc1cc2c(cc1S(N)(=O)=O)S(=O)(=O)CCC2', 'Bacterial Biotransformation', 'Compound NOT metabolized'),
  ('Cc1nc(Nc2ncc(C(=O)Nc3c(C)cccc3Cl)s2)cc(N2CCN(CCO)CC2)n1.O', 'Bacterial Biotransformation', 'Compound metabolized'),
  ('CCc1nn(CCCN2CCN(c3cccc(Cl)c3)CC2)c(=O)n1CCOc1ccccc1', 'Bacterial Biotransformation', 'Compound NOT metabolized'),
  ('CCN1CCCC1CNC(=O)c1cc(S(=O)(=O)CC)c(N)cc1OC (stereo unspecified) [AMISULPRIDE]', 'Bacterial Biotransformation', 'Compound NOT metabolized'),
  ('CC(C)NCC(O)c1ccc(NS(C)(=O)=O)cc1 (stereo unspecified)', 'Bacterial Biotransformation', 'Compound NOT metabolized'),
  ('COc1cc2nc(N3CCN(C(=O)c4ccco4)CC3)nc(N)c2cc1OC', 'Bacterial Biotransformation', 'Compound NOT metabolized'),
  ('CS(=O)(=O)O.OC(CCN1CCCCC1)(c1ccccc1)c1ccccc1 [PRIDINOL METHANESULFONATE]', 'Bacterial Biotransformation', 'Compound NOT metabolized'),
  ('CC(=O)OCC(=O)[C@@]1(OC(C)=O)[C@@H](C)C[C@H]2[C@@H]3C[C@H](F)C4=CC(=O)C=C[C@]4(C)[C@@]3(F)[C@@H](O)C[C@@]21C [DIFLORASONE DIACETATE]', 'Bacterial Biotransformation', 'Compound metabolized'),
  ('COc1ccccc1OCC(O)CN1CCN(CC(=O)Nc2c(C)cccc2C)CC1 (stereo unspecified)', 'Bacterial Biotransformation', 'Compound NOT metabolized'),
  ('O=P1(N(CCCl)CCCl)NCCCO1 (stereo unspecified) [CYCLOPHOSPHAMIDE ANHYDROUS]', 'Bacterial Biotransformation', 'Compound NOT metabolized'),
  ('O=c1n(CCCN2CCN(c3cccc(Cl)c3)CC2)nc2ccccn12', 'Bacterial Biotransformation', 'Compound NOT metabolized');

====

assay: The drug is tested on Bacteroides finegoldii strain: DSM17565 for biotransformation. The drug concentrations were measured before and after a 12-h incubation by liquid-chromatography-coupled mass spectrometry (LC–MS); conditions: 2 µM
Readout label: Bacterial Biotransformation

INSERT INTO results (molecule, value) VALUES
  ('O=C1CN2Cc3c(ccc(Cl)c3Cl)N=C2N1 [ANAGRELIDE]', 'Compound NOT metabolized'),
  ('O=C1C(CC[S+]([O-])c2ccccc2)C(=O)N(c2ccccc2)N1c1ccccc1 (centres undefined)', 'Compound NOT metabolized'),
  ('CCCCc1nc(Cl)c(CO)n1Cc1ccc(-c2ccccc2-c2nn[nH]n2)cc1', 'Compound metabolized'),
  ('CCCc1nc(C(C)(C)O)c(C(=O)OCc2oc(=O)oc2C)n1Cc1ccc(-c2ccccc2-c2nnn[nH]2)cc1', 'Compound metabolized'),
  ('COc1ccc([C@@H]2Sc3ccccc3N(CCN(C)C)C(=O)[C@@H]2OC(C)=O)cc1', 'Compound metabolized'),
  ('CC(=O)O[C@]1(C(C)=O)CC[C@H]2[C@@H]3C=C(Cl)C4=CC(=O)[C@@H]5C[C@@H]5[C@]4(C)[C@H]3CC[C@@]21C [CYPROTERONE ACETATE]', 'Compound NOT metabolized'),
  ('Nc1nc(N)nc(-c2cc(Cl)ccc2Cl)n1.O=C(O)/C=C\C(=O)O [IRSOGLADINE MALEATE]', 'Compound NOT metabolized'),
  ('C[C@@H]1C[C@H]2[C@@H]3CCC4=CC(=O)C=C[C@]4(C)[C@@]3(F)[C@@H](O)C[C@]2(C)[C@@]1(O)C(=O)CO', 'Compound NOT metabolized'),
  ('COc1ccnc(C[S+]([O-])c2nc3ccc(OC(F)F)cc3[nH]2)c1OC (centres undefined)', 'Compound metabolized'),
  ('C#C[C@]1(OC(C)=O)CC[C@H]2[C@@H]3CCC4=CC(=O)CC[C@@H]4[C@H]3CC[C@@]21C [NORETHINDRONE ACETATE]', 'Compound metabolized'),
  ('c1ccc2[nH]c(-c3cscn3)nc2c1', 'Compound NOT metabolized'),
  ('COc1ccc(CN2CCNCC2)c(OC)c1OC.Cl.Cl [TRIMETAZIDINE DIHYDROCHLORIDE]', 'Compound NOT metabolized'),
  ('CC(C)(Oc1ccc(CCNC(=O)c2ccc(Cl)cc2)cc1)C(=O)O [BEZAFIBRATE]', 'Compound metabolized'),
  ('Cc1nc2n(c(=O)c1CCN1CCC(c3noc4cc(F)ccc34)CC1)CCCC2', 'Compound NOT metabolized'),
  ('NC(=O)N1c2ccccc2CC(=O)c2ccccc21 [OXCARBAZEPINE]', 'Compound NOT metabolized'),
  ('Cc1nc(Nc2ncc(C(=O)Nc3c(C)cccc3Cl)s2)cc(N2CCN(CCO)CC2)n1.O', 'Compound metabolized'),
  ('OCCOCCN1CCN(C2=Nc3ccccc3Sc3ccccc32)CC1', 'Compound NOT metabolized'),
  ('CC(C)(C)NCC(O)COc1cccc2c1CC(O)C(O)C2 (centres undefined)', 'Compound NOT metabolized'),
  ('COc1ccc2c(c1)c(CC(=O)O)c(C)n2C(=O)c1ccc(Cl)cc1', 'Compound metabolized'),
  ('CCN(CC)C(=O)C1(c2ccccc2)CC1CN (centres undefined)', 'Compound NOT metabolized'),
  ('CCN(CC)CCNC(=O)c1cc(Cl)c(N)cc1OC [METOCLOPRAMIDE]', 'Compound NOT metabolized'),
  ('C[C@@H]1CC[C@H]2[C@@H](C)C(=O)O[C@@H]3O[C@@]4(C)CC[C@@H]1[C@]32OO4', 'Compound metabolized'),
  ('CC(C)(C)NCC(O)c1cc(Cl)c(N)c(Cl)c1 (centres undefined)', 'Compound NOT metabolized'),
  ('CCOc1ccccc1OCCN[C@H](C)Cc1ccc(OC)c(S(N)(=O)=O)c1.Cl [TAMSULOSIN HYDROCHLORIDE]', 'Compound NOT metabolized'),
  ('COc1ccc2c(c1OC)C(=O)O[C@@H]2[C@H]1c2c(cc3c(c2OC)OCO3)CCN1C', 'Compound metabolized'),
  ('O=C(O)COCCN1CCN(C(c2ccccc2)c2ccc(Cl)cc2)CC1 (centres undefined)', 'Compound metabolized'),
  ('C=CC[C@@H]1/C=C(\C)C[C@H](C)C[C@H](OC)[C@H]2O[C@@](O)(C(=O)C(=O)N3CCCC[C@H]3C(=O)O[C@H](/C(C)=C/[C@@H]3CC[C@@H](O)[C@H](OC)C3)[C@H](C)[C@@H](O)CC1=O)[C@H](C)C[C@@H]2OC.O', 'Compound metabolized'),
  ('COC1=C(OC)C(=O)C(CCCCCCCCCCO)=C(C)C1=O', 'Compound NOT metabolized'),
  ('CC(Oc1c(Cl)cccc1Cl)C1=NCCN1 (centres undefined)', 'Compound metabolized'),
  ('OC(CCN1CCCCC1)(c1ccccc1)C1CC2C=CC1C2 (centres undefined)', 'Compound NOT metabolized'),
  ('CCN1CCCC1CNC(=O)c1cc(S(=O)(=O)CC)c(N)cc1OC (centres undefined) [AMISULPRIDE]', 'Compound NOT metabolized'),
  ('Cc1ccc(/C(=C\CN2CCCC2)c2ccccn2)cc1', 'Compound NOT metabolized'),
  ('CCCN(CCC)CCc1cccc2c1CC(=O)N2', 'Compound NOT metabolized'),
  ('CN1CCN2c3ccccc3Cc3ccccc3C2C1 (centres undefined)', 'Compound NOT metabolized');
